measured target: Tyrosine-protein kinase SYK (Homo sapiens)
assay notes: Inhibition of Syk (unknown origin) using 4 uM peptide assessed as product formation after 60 mins incubation by microfluidic mobility shift assay
property: IC50 (nM)
Unit nM implied. Number only.

>  <item smiles>
Cn1cc2c(Nc3nc(N[C@@H]4CCOC[C@@H]4N)cc4cc[nH]c(=O)c34)cccc2n1

>  <IC50 [nM]>
1

$$$$
>  <item smiles>
N[C@H]1COCC[C@H]1Nc1cc2cc[nH]c(=O)c2c(Nc2cccc3cc[nH]c23)n1

>  <IC50 [nM]>
22

$$$$
>  <item smiles>
Cc1c[nH]c2c(Nc3nc(N[C@@H]4CCCC[C@@H]4N)cc4cc[nH]c(=O)c34)cccc12

>  <IC50 [nM]>
3

$$$$
>  <item smiles>
N[C@H]1CCCC[C@H]1Nc1cc2nc[nH]c(=O)c2c(Nc2cccc3c(Cl)c[nH]c23)n1

>  <IC50 [nM]>
34

$$$$
>  <item smiles>
Cc1c[nH]c2c(Nc3nc(N[C@@H]4CCOC[C@@H]4N)cc4nc[nH]c(=O)c34)cccc12

>  <IC50 [nM]>
1

$$$$

Give Tyrosine-protein kinase SYK (Homo sapiens) IC50 for the following compound: Cn1ccc2cccc(Nc3nc(N[C@@H]4CCCC[C@@H]4N)cc4nc[nH]c(=O)c34)c21
1600

Give Tyrosine-protein kinase SYK (Homo sapiens) IC50 for the following compound: Cc1nc2cc(N[C@@H]3CCCC[C@@H]3N)nc(Nc3cccc4c(C)c[nH]c34)c2c(=O)[nH]1
480

Give Tyrosine-protein kinase SYK (Homo sapiens) IC50 for the following compound: Cc1c[nH]c2c(Nc3nc(N[C@@H]4CCCC[C@@H]4N)cc4nc[nH]c(=O)c34)cccc12
2

Give Tyrosine-protein kinase SYK (Homo sapiens) IC50 for the following compound: N[C@H]1CCCC[C@H]1Nc1cc2nc[nH]c(=O)c2c(Nc2cccc3[nH]ccc23)n1
1

Give Tyrosine-protein kinase SYK (Homo sapiens) IC50 for the following compound: N[C@H]1CCCC[C@H]1Nc1cc2cc[nH]c(=O)c2c(Nc2cccc3c(Cl)c[nH]c23)n1
4

Give Tyrosine-protein kinase SYK (Homo sapiens) IC50 for the following compound: N[C@H]1CCCC[C@H]1Nc1cc2[nH]c(=O)[nH]c(=O)c2c(Nc2cccc3cc[nH]c23)n1
1900

Give Tyrosine-protein kinase SYK (Homo sapiens) IC50 for the following compound: N[C@H]1CCCC[C@H]1Nc1cc2nc[nH]c(=O)c2c(Nc2cccc(-n3nccn3)c2)n1
5

====

Tested on: Bone marrow cell
assay notes: Inhibition of IL3 dependent proliferation in […] mouse bone marrow cells using [3H]thymidine by liquid scintillation counting
Format: functional, cell-based
property: pIC50
Units for pIC50: none; it is -log10 of a concentration expressed in mol/L.

Worked set:
>  <item smiles>
Cn1cc2c(Nc3nc(N[C@@H]4CCOC[C@@H]4N)cc4cc[nH]c(=O)c34)cccc2n1

>  <pIC50>
5.84

$$$$
>  <item smiles>
N[C@H]1COCC[C@H]1Nc1cc2nc[nH]c(=O)c2c(Nc2cccc3cc[nH]c23)n1

>  <pIC50>
5.13

$$$$

Here is the next item to consider.
Report pIC50, nothing else, for this molecule: N[C@H]1CCCC[C@H]1Nc1cc2nc[nH]c(=O)c2c(Nc2cccc3[nH]ccc23)n1
5.38
